Where do these numbers come from? They come from the supplement of paper PMC10567573.

B1: ZMYND11 (parent)
chain: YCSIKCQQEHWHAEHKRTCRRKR

Variants of: B1
Assay: protein stability index of a GFP-peptide fusion (GPS, HEK-293T) (PSI 1-6); higher = more stable;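 further: lentivirally expressed fusions sorted by FACS into six bins by GFP to DsRed ratio, PSI derived from sequencing read proportions per bin multiplied by bin number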
Details: c terminus: native
Respond with true (1) for protein stability index values of 3 and above, false (0) for values below.

INSERT INTO results (sequence_chain, label_value) VALUES
  ('YCSIKCQQEHWHAEHKRTCRCKR', 'false (0)'),
  ('YCSIKCQMEHWHAEHKRTCRRKR', 'false (0)'),
  ('YCSIKCQWEHWHAEHKRTCRRKR', 'false (0)'),
  ('YCSIKCQQQHWHAEHKRTCRRKR', 'false (0)'),
  ('YCSIKCQQEHWHAEHKRTPRRKR', 'true (1)'),
  ('YCCIKCQQEHWHAEHKRTCRRKR', 'true (1)'),
  ('YCSIKCQQEHWHAEHKRTCPRKR', 'false (0)'),
  ('YCSIKCQQEHWHAEHKRICRRKR', 'false (0)'),
  ('YCSIKCQQEHWHAEHKRYCRRKR', 'false (0)'),
  ('YCSSKCQQEHWHAEHKRTCRRKR', 'false (0)'),
  ('YCSIKCQQEHWHAEHKSTCRRKR', 'false (0)'),
  ('YCSIKCQQEHWHAEHKRTCRQKR', 'false (0)'),
  ('YCSIKCQQEAWHAEHKRTCRRKR', 'false (0)'),
  ('YCSIKCQQEHWHAEHARTCRRKR', 'false (0)'),
  ('YCSIECQQEHWHAEHKRTCRRKR', 'false (0)'),
  ('YCSIQCQQEHWHAEHKRTCRRKR', 'true (1)'),
  ('YCSIKCQKEHWHAEHKRTCRRKR', 'false (0)'),
  ('YCSIKCQQEHWHAEHGRTCRRKR', 'false (0)'),
  ('YCSIKCQQGHWHAEHKRTCRRKR', 'false (0)'),
  ('YCSPKCQQEHWHAEHKRTCRRKR', 'false (0)'),
  ('YCSIKCQQEHWHAEHVRTCRRKR', 'false (0)'),
  ('NCSIKCQQEHWHAEHKRTCRRKR', 'true (1)');
